# SYSTEM TESTED: TEC (Homo sapiens)
# Sequence (P42680 whole entry): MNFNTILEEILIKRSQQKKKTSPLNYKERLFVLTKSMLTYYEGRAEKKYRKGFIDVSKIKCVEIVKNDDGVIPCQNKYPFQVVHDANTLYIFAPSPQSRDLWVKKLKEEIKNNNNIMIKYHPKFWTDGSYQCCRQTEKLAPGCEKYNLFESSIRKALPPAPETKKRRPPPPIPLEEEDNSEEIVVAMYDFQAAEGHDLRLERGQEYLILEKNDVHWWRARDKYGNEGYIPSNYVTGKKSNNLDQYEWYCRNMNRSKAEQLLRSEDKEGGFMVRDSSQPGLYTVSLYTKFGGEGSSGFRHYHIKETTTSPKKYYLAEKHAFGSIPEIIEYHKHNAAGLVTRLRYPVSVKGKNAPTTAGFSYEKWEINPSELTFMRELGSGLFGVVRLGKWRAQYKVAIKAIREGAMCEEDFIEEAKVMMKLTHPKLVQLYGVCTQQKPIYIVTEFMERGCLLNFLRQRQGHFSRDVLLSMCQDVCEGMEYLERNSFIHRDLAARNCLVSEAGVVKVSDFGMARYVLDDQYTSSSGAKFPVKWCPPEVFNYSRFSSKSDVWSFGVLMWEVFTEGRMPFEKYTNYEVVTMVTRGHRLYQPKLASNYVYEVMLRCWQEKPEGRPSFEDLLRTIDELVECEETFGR
# EXPERIMENTAL DETAILS: Inhibition of a panel of kinases (in vitro HotSpot kinase assay, 33P-ATP, 1 μM ATP)
# Format: biochemical
# RUN CONDITIONS: ratio of TEC IC50 to Btk IC50 (selectivity)
TEC/Btk strictly under 100 means class 1; at 100 or over means class 0.

Field: example entries. Status: answers known.
SMILES REPR	SYSTEM TESTED	GROUP LABEL
C[C@@H]1[C@H](Nc2n[nH]c3nccc(-c4ccc(CNC(=O)c5noc(C(C)(C)C)n5)c(F)c4)c23)CCCN1C(=O)N1CCCC1	TEC (Homo sapiens)	class 1
CC(=O)N1CC[C@H](Nc2n[nH]c3nccc(-c4ccc(CNC(=O)c5nc(C(C)(C)C)no5)c(F)c4)c23)C1	TEC (Homo sapiens)	class 0
C=CC(=O)N1CC[C@H](Nc2n[nH]c3nccc(-c4ccc(CNC(=O)c5ccc(C(C)(C)C)cc5)c(F)c4)c23)C1	TEC (Homo sapiens)	class 0

Req: Determine whether this compound shows TEC/Btk lower than 100 (ties excluded): CC1(C)Cc2cc(C(=O)NCc3ccc(-c4ccnc5[nH]nc(N[C@@H]6CCNC6)c45)cc3F)[nH]c2C1
Resp: class 0

Req: Determine whether this compound shows TEC/Btk lower than 100 (ties excluded): CC#CC(=O)N1CC[C@@H](Nc2n[nH]c3nccc(-c4cccc(NC(=O)c5ccc(C(C)(C)C)cc5)c4C)c23)C1
Resp: class 0

Req: Determine whether this compound shows TEC/Btk lower than 100 (ties excluded): CC(C)(C)c1ccc(C(=O)Nc2ccc(-c3ccnc4[nH]nc(N[C@H]5CC[C@H](O)CC5)c34)cc2F)cc1
Resp: class 1

###

# SYSTEM TESTED: Btk (Homo sapiens, UniProt Q06187)
# Construct: purified from insect cells as a full-length construct containing a N-terminal 6X-His tag; His6 (N); made in house; host or cells: insect cells (Method C)
# Sequence (Q06187 whole entry): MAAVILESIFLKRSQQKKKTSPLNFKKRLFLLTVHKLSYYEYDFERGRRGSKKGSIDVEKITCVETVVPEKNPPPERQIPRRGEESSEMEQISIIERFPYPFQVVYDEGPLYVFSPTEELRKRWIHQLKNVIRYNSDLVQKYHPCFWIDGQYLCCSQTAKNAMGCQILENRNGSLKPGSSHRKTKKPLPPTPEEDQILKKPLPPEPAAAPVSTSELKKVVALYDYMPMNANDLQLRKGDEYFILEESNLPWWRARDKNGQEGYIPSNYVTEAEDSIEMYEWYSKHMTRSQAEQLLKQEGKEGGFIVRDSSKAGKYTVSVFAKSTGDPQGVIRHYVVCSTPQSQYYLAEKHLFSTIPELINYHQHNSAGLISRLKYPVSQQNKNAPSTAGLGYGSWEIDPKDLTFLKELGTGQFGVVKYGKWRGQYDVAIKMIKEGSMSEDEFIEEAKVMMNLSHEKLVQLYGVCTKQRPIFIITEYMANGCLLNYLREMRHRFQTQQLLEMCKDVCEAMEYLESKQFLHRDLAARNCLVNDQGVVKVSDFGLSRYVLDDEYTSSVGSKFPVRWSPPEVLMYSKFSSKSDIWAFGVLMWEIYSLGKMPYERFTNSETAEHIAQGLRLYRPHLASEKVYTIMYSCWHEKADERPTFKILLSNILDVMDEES
# EXPERIMENTAL DETAILS: Btk in vitro inhibitory activity (one of Method A TR-FRET, Method B electrophoretic mobility shift, Method C radiometric filter binding)
# Type: biochemical
# RUN CONDITIONS: wild-type Btk; read-out: Btk-WT IC50
IC50 strictly under 1 nM means true (1); at 1 nM or over means false (0).

MOLECULE	GROUP LABEL
C=CC(=O)N1CC[C@@H](Nc2n[nH]c3nccc(-c4ccc(CNC(=O)c5ccc(C(F)(F)F)cc5)c(F)c4)c23)C1 [Compound 48]	true (1)
CC(C)(C)c1noc(C(=O)NCc2ccc(-c3ccnc4[nH]nc(N[C@H]5CCCNC5)c34)cc2F)n1 [Example 167]	false (0)
CC(C)(C)c1nc(C(=O)NCc2ccc(-c3ccnc4[nH]nc(C[C@H]5CCNC5)c34)cc2F)no1 [Example 274]	false (0)
C[C@@H](NC(=O)c1nc(C(C)(C)C)no1)c1ccc(-c2ccnc3[nH]nc(N4CCCCC4)c23)cc1 [Example 384]	true (1)
C[C@H](NC(=O)c1noc(C(C)(C)C)n1)c1ccc(-c2ccnc3[nH]nc(N[C@@H]4CCN(C(=O)N(C)C)C4)c23)cc1F [Example 291]	false (0)

Req: Determine whether this molecule shows IC50 lower than 1 nM (ties excluded): COC(=O)N1C[C@H](Nc2n[nH]c3nccc(-c4ccc(CNC(=O)c5noc(C(C)(C)C)n5)c(F)c4)c23)CC[C@@H]1C [Example 226]
Resp: false (0)

Req: Determine whether this molecule shows IC50 lower than 1 nM (ties excluded): CN1CC[C@H](Nc2n[nH]c3nccc(-c4ccc(CNC(=O)c5nc(C(C)(C)C)no5)c(F)c4)c23)C1 [Example 166]
Resp: false (0)
